study-target: T1, cynomolgus monkey CD19 on peripheral blood B cells (cynomolgus monkey (Macaca fascicularis), UniProt A0A2K5W8L9 20-557)
T1 construct: whole, on cells; also called cynomolgus monkey B cells
T1 sequence: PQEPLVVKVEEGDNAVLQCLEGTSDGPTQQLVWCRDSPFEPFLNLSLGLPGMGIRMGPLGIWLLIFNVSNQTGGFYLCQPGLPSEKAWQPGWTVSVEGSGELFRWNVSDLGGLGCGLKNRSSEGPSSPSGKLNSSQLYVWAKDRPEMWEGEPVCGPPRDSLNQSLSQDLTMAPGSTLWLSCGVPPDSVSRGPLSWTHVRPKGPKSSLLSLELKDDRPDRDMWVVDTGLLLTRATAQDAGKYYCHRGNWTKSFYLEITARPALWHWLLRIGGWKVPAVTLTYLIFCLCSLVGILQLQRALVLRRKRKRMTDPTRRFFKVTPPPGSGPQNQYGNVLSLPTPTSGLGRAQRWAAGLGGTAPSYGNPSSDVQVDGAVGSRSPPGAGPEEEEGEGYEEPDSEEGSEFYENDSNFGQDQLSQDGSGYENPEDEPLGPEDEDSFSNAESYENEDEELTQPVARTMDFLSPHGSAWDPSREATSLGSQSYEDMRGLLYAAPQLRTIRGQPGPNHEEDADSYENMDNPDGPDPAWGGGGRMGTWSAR
assay-details: FACS, cynomolgus PBMC, CD20+ B cells
List of Proportion of chimeric antibody positive cells to B cells (%) at 100 nM values.
# unit: % | format: bare number

F5.8.6 (antibody, human IgG1, V domains shown, human-murine chimeric antibody, human IgG1) VH: QVQLHQPGAELVMPGASVTLSCKASGYTFTSYWMHWVKQRPGQGLEWIGEIDPSDSYTTYDQKFKGKATLTVDKFSSTAYMQFSSLTSEDSAVYYCARLTGNHLDYWGQGTTLTVSS VL: DIVMTQSHKFMSSSVGDRVSITCKASQDVSPAVAWYQQKPGQSPKLLIYSTSYRNTGVPDRFTGSGSGTDFTFTISSVQAEDLAVYYCQQHYSIPLTFGAGTKLELK; 18

Q. So what does the record say about Proportion of chimeric antibody positive cells to B cells (%) at 100 nM for F4.18.13 (antibody, human IgG1, V domains shown, human-murine chimeric antibody, human IgG1) VH: QVQLQQSGPELVKPGASVKISCKASGYAFSSFWMNWVKQRPGEGLEWIGRIYPGDGDTNYNGKFKGKATLTADDSSSTAYMQLSSLTSVDSAVYFCAREVIAAVVTTDFDYWGQGTTLTVSS VL: DIQMTQTTSSLSASLGDRVTISCRTSQDISNYLNWYLQKPDGTVKLLIYYTSGLHSGVPSRFSGSGSGTDYSLTISNLEPEDIATYFCQQGKTLPYTFGGGTKLEIK ?
A. 21
